- target-desc: Mucolipin-1 (Homo sapiens) (UniProt Q9GZU1)
- Sequence (Q9GZU1 whole entry, looked up): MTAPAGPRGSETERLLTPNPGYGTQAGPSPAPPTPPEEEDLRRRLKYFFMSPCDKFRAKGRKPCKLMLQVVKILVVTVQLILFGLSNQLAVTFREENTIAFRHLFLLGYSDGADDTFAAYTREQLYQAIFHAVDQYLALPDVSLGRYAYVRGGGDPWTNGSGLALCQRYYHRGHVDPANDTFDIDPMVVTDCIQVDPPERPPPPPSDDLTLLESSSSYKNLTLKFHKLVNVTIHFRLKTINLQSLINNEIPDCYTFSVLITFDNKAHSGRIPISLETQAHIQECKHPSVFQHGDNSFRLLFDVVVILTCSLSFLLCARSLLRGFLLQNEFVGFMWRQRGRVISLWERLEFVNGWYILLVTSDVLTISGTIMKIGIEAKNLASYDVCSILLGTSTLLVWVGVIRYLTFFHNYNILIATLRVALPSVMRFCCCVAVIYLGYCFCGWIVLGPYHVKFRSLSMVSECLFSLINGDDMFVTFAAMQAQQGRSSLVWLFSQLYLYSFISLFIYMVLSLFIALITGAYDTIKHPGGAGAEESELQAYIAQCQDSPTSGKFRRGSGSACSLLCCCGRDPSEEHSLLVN
- measurement-description: qHTS for Inhibitors of the Human Mucolipin Transient Receptor Potential 1 (TRPML1);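 note: stimulus is agonist 54-4 at its EC80 concentration; % is set by controls: 0 for no effect and ±100 for the full control effect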
- experimental-conditions: TRPML1-inducible cells, Ca2+ dye fluorescence, FDSS; hits give low values; inhibition of EC80 agonist-evoked calcium signal
About 60 (0.02%) of roughly 390,000 compounds were called active. The list comes from a sample in which actives are over-represented; it also holds close analogues and randomly drawn compounds.
parameter-measured: activity change, negative = inhibition (%)

> print(dat)
                                    compound                      parameter.measured  units.symbol  obs.value
 1  COc1ccccc1-c1ccnc2[nH]n(-c3ccccc3)c(=O)c12  activity change, negative = inhibition             %     -0.876
 2  Cc1ccc2cccc(NC(=O)C(C)Oc3ccc(C)c(C)c3)c2n1 (stereo not given)  activity change, negative = inhibition             %      -1.63
 3  COc1ccc(C(CCN2CCOCC2)c2c(OC)cc(OC)c3c2OC(=O)CC3c2ccc(OC)cc2)cc1 (stereo not given)  activity change, negative = inhibition             %      -3.63
 4  O=C(CN1CCN(Cc2ccc(Cl)cc2)C1=O)NCc1ccc(F)cc1  activity change, negative = inhibition             %        3.6
 5  CCC(Sc1nnc(-c2ccc(OC)cc2)c(-c2ccc(OC)cc2)n1)C(=O)NC1CCCCC1 (stereo not given)  activity change, negative = inhibition             %      -8.91
 6  CCOc1ccc(C2C(=O)N(C3CCCCC3)CC(=O)N2CCC2=CCCCC2)cc1OC (stereo not given)  activity change, negative = inhibition             %      -3.98
 7  Cc1c(C(=O)N2CCCC2)oc2c1-c1nn(CC(=O)NCc3ccc(OC(C)C)cc3)cc1CC2  activity change, negative = inhibition             %       30.2
 8  Cc1cccc(Cn2c(=O)n(CCC(=O)NCCc3ccc(Cl)cc3)c(=O)c3sccc32)c1  activity change, negative = inhibition             %      -20.1
 9  Cc1cccc2c1-c1sc(C(=O)Nc3ccc(F)cc3F)cc1CO2  activity change, negative = inhibition             %       18.7
10  Cc1ccc(-n2c(SCC(=O)c3ccccc3)nc3c([nH]c4ccccc43)c2=O)cc1  activity change, negative = inhibition             %       13.9
11  COc1cc(OC)cc(-c2nc3nc(C)c(CCC(=O)Nc4ccccc4)c(C)n3n2)c1  activity change, negative = inhibition             %      -13.4
12  Cc1ccc(OCC(=O)Nc2ccc(OCc3cc(=O)n4c(C)csc4n3)cc2)cc1C  activity change, negative = inhibition             %       21.1
13  Cc1cccc(Cn2c(SCc3ccc(C(=O)N4CCC(C)CC4)cc3)nc3ccncc32)c1  activity change, negative = inhibition             %       10.3
14  Cc1ccc(S(=O)(=O)N(CC(=O)Nc2ccc(Cl)cc2Cl)c2ccccc2C)cc1  activity change, negative = inhibition             %       59.9
15  Cc1ccccc1CN1CCC(CNC(=O)c2c(C)oc3ncnc(N4CCCCC4)c23)CC1  activity change, negative = inhibition             %        3.2
16  Cn1cc(S(=O)(=O)N2CCCCCC2)cc1C(=O)N1CCN(c2ccc(F)cc2)CC1  activity change, negative = inhibition             %      -18.5
17  Cn1c(=O)c(=O)n(C)c2cc(NC(=O)c3ccccc3Br)ccc21  activity change, negative = inhibition             %       18.3
18  CCCOc1ccc(C(=O)Nc2ccc3oc(-c4cccc(Cl)c4Cl)nc3c2)cc1  activity change, negative = inhibition             %      -2.03
19  Cc1cc(O)c(C(c2ccccc2)N2CCN(c3ccccc3F)CC2)c(=O)n1Cc1ccco1 (stereo not given)  activity change, negative = inhibition             %         19
20  O=C(O)c1ccc(Nc2nc(-c3ccccc3)c3cc(Br)ccc3n2)cc1  activity change, negative = inhibition             %       16.7
21  COc1ccc2c(c1)Cc1sc(NC(=O)c3ccccc3Br)nc1-2  activity change, negative = inhibition             %      -10.7
22  COc1c(Cl)cc(C(=O)N(Cc2ccccc2F)C2CCS(=O)(=O)C2)cc1Cl (stereo not given)  activity change, negative = inhibition             %      -13.9
23  Cn1c(C(=O)N2CCC(C(=O)N3CCN(c4ccccc4)CC3)CC2)cc2sccc21  activity change, negative = inhibition             %      -0.29
24  Cc1nc(SCC(=O)N2CCN(c3ccccc3)CC2)[nH]c(=O)c1C  activity change, negative = inhibition             %       14.8
25           Cc1cc(C)cc(NC(=O)Cc2csc(C)n2)c1  activity change, negative = inhibition             %       2.64
26  CCN(CC)/[N+]([O-])=N/OCOC(=O)Cc1c(C)n(C(=O)c2ccc(Cl)cc2)c2ccc(OC)cc12  activity change, negative = inhibition             %       37.6
27  COc1ccccc1-c1cc(C(F)(F)F)nc(S(=O)(=O)CCCC(=O)Nc2cc(C)ccc2O)n1  activity change, negative = inhibition             %      -10.5
28  Cc1ccc(OCCSc2nc(C)c(Cc3ccccc3)c(=O)[nH]2)cc1  activity change, negative = inhibition             %      -16.6
29  Cc1ccc2ncc(C(=O)Nc3ccc(OC(F)(F)F)cc3)c(=O)n2c1  activity change, negative = inhibition             %       4.29
30  Cc1ccc(NC(=O)NC(C)c2c(-n3cccc3)sc(C)c2C)c(C)c1 (stereo not given)  activity change, negative = inhibition             %         43
31  Cc1cccc(NC(=O)CN(c2ccc(C(C)C)cc2)S(=O)(=O)c2c(C)nn(C)c2C)c1C  activity change, negative = inhibition             %       3.79
32  CCCn1c(=N)c(C(=O)NCc2ccccc2)cc2c(=O)n3cccc(C)c3nc21  activity change, negative = inhibition             %     -0.876
33  COc1ccc(NC(=O)CSc2nc3ncccc3[nH]2)c(OC)c1  activity change, negative = inhibition             %      -10.8
34  Cc1cccc(C(=O)Nc2ccc(-c3nc4ncccc4o3)cc2C)c1  activity change, negative = inhibition             %       -6.3
35  COC(=O)c1ccc(-c2nc3cc(NC(C)=O)ccc3o2)cc1  activity change, negative = inhibition             %       12.1
36  O=C(CSCc1cnn(-c2ccccc2)c1-n1cccc1)NCc1ccccc1Br  activity change, negative = inhibition             %        2.1
37  C=COC(=O)N1CCN(/[N+]([O-])=N/Oc2ccc([N+](=O)[O-])cc2[N+](=O)[O-])CC1  activity change, negative = inhibition             %       5.96
38  CCOC(=O)c1ccc(NC(=O)C2CC(=O)N(c3ccc(C(C)C)cc3)C2)cc1 (stereo not given)  activity change, negative = inhibition             %      -2.44
39  CCOc1ccc(C(=O)c2cn(Cc3ccc(F)cc3)c3ccc(F)cc3c2=O)cc1  activity change, negative = inhibition             %       34.7
40  CCOc1ccc(-c2cc3c(=O)n(CC(=O)NCc4ccc(OC)cc4)ccn3n2)cc1  activity change, negative = inhibition             %       14.1
